# relative viability per record follows
Test system: NCI-H727
method.description: relative viability (nuclei count vs DMSO), 5 days (fraction); higher = more cells survive
condition.info: first compound 0.1 µM

compound	relative viability
Cc1cn(-c2cc(NC(=O)c3ccc(C)c(Nc4nccc(-c5cccnc5)n4)c3)cc(C(F)(F)F)c2)cn1 [Nilotinib] + CS(=O)(=O)CCNCc1ccc(-c2ccc3ncnc(Nc4ccc(OCc5cccc(F)c5)c(Cl)c4)c3c2)o1 [Lapatinib] (partner 2 µM)	0.368
Cc1cn(-c2cc(NC(=O)c3ccc(C)c(Nc4nccc(-c5cccnc5)n4)c3)cc(C(F)(F)F)c2)cn1 [Nilotinib] + C[C@]1(O)C[C@@H](c2nc(-c3ccc4ccc(-c5ccccc5)nc4c3)c3c(N)nccn32)C1 [Linsitinib] (partner 1 µM)	0.263
Cc1cn(-c2cc(NC(=O)c3ccc(C)c(Nc4nccc(-c5cccnc5)n4)c3)cc(C(F)(F)F)c2)cn1 [Nilotinib] + N=C(N)NC(=N)NCCc1ccccc1 [Phenformin] (partner 250 µM)	0.346
Cc1cn(-c2cc(NC(=O)c3ccc(C)c(Nc4nccc(-c5cccnc5)n4)c3)cc(C(F)(F)F)c2)cn1 [Nilotinib] + CC(=O)Nc1cccc(-n2c(=O)n(C3CC3)c(=O)c3c(Nc4ccc(I)cc4F)n(C)c(=O)c(C)c32)c1 [Trametinib] (partner 0.02 µM)	0.345
Cc1cn(-c2cc(NC(=O)c3ccc(C)c(Nc4nccc(-c5cccnc5)n4)c3)cc(C(F)(F)F)c2)cn1 [Nilotinib] + COc1cc2c(Oc3ccc(NC(=O)C4(C(=O)Nc5ccc(F)cc5)CC4)cc3F)ccnc2cc1OCCCN1CCOCC1 [Foretinib] (partner 0.25 µM)	0.79
Cc1cn(-c2cc(NC(=O)c3ccc(C)c(Nc4nccc(-c5cccnc5)n4)c3)cc(C(F)(F)F)c2)cn1 [Nilotinib] + CC(=O)c1c(C)c2cnc(Nc3ccc(N4CCNCC4)cn3)nc2n(C2CCCC2)c1=O [Palbociclib] (partner 0.5 µM)	0.633

* * *

# relative viability per record follows
System: NCI-H838
method.description: relative viability (nuclei count vs DMSO), 5 days (fraction); higher = more cells survive
condition.info: first compound 0.001 µM

molecule	system.under.test	relative viability
Cc1cn(-c2cc(NC(=O)c3ccc(C)c(Nc4nccc(-c5cccnc5)n4)c3)cc(C(F)(F)F)c2)cn1 [Nilotinib] + COc1cccc2cc(-c3nc([C@H]4CC[C@H](C(=O)O)CC4)n4ncnc(N)c34)[nH]c12 [OSI-027] (partner 0.5 µM)	NCI-H838	0.427
Cc1cn(-c2cc(NC(=O)c3ccc(C)c(Nc4nccc(-c5cccnc5)n4)c3)cc(C(F)(F)F)c2)cn1 [Nilotinib] + CC(C)C[C@H](NC(=O)[C@H](Cc1ccccc1)NC(=O)c1cnccn1)B(O)O [Bortezomib] (partner 0.002 µM)	NCI-H838	0.867
Cc1cn(-c2cc(NC(=O)c3ccc(C)c(Nc4nccc(-c5cccnc5)n4)c3)cc(C(F)(F)F)c2)cn1 [Nilotinib] + CC(=O)c1c(C)c2cnc(Nc3ccc(N4CCNCC4)cn3)nc2n(C2CCCC2)c1=O [Palbociclib] (partner 0.5 µM)	NCI-H838	0.215

* * *

# relative viability per record follows
System: NCI-H1793
method.description: relative viability (nuclei count vs DMSO), 5 days (fraction); higher = more cells survive
condition.info: first compound 0.2 µM
property.measured: relative viability

compound	value
Cc1csc(=NC2CCCCC2)n1/N=C/c1ccc(O)c(O)c1O [MIM1] + CS(=O)(=O)CCNCc1ccc(-c2ccc3ncnc(Nc4ccc(OCc5cccc(F)c5)c(Cl)c4)c3c2)o1 [Lapatinib] (partner 2 µM)	0.768
CCNC(=O)c1noc(-c2cc(C(C)C)c(O)cc2O)c1-c1ccc(CN2CCOCC2)cc1 [Luminespib] + CS(=O)(=O)N1CCN(Cc2cc3nc(-c4cccc5[nH]ncc45)nc(N4CCOCC4)c3s2)CC1 [Pictilisib] (partner 1 µM)	0.194
CN1CCN(CCOc2cc(OC3CCOCC3)c3c(Nc4c(Cl)ccc5c4OCO5)ncnc3c2)CC1 [Saracatinib] + CS(=O)(=O)CCNCc1ccc(-c2ccc3ncnc(Nc4ccc(OCc5cccc(F)c5)c(Cl)c4)c3c2)o1 [Lapatinib] (partner 2 µM)	0.587
Cc1csc(=NC2CCCCC2)n1/N=C/c1ccc(O)c(O)c1O [MIM1] + CC(=O)c1c(C)c2cnc(Nc3ccc(N4CCNCC4)cn3)nc2n(C2CCCC2)c1=O [Palbociclib] (partner 0.5 µM)	0.317
